Data provenance: ChEMBL document CHEMBL1151259

System: MCF7
Test: Cytotoxicity against human MCF7 cells after 48 hrs by SRB assay
Assay type: functional, cell-based
Details: MCF7, 48 h
test readout: GI50 (µM)

- CC(=O)[C@@]1(C)CC[C@H]2[C@@](C)(CC[C@@]3(C)[C@@H]4CC(C)(C)CC[C@]4(C)CC[C@]23C)[C@@H]1CCC(=O)O: 26.9
- CC(=O)[C@@]1(C)CC[C@H]2[C@@](C)(CC[C@@]3(C)[C@@H]4CC(C)(C)CC[C@]4(C)CC[C@]23C)[C@@H]1CC(=O)O: 10.9
- COC(=O)C[C@H]1[C@]2(C)CC[C@@]3(C)[C@@H]4CC(C)(C)CC[C@]4(C)CC[C@]3(C)[C@H]2CC[C@]1(C)C(C)=O: 101
- COc1cccc2c1C(=O)c1c(O)c3c(c(O)c1C2=O)C[C@@](O)(C(=O)CO)C[C@@H]3O[C@H]1C[C@H](N)[C@H](O)[C@H](C)O1: 0.0428

---

Below: a set of entries, each annotated with reported GI50.
Test system: MCF7
Assay: Cytotoxicity against human MCF7 cells after 48 hrs by SRB assay
Format: functional, cell-based
Conditions: MCF7, 48 h
test readout: GI50

• CC1(C)CC[C@]2(C)CC[C@]3(C)[C@H]4CC[C@@]5(C)[C@@H](CCC(=O)[C@]5(C)O)[C@]4(C)CC[C@@]3(C)[C@@H]2C1 = > 50 µM
• CC1(C)CC[C@]2(C)CC[C@]3(C)[C@H]4CC[C@@]5(C)[C@@H](CCC(=O)[C@@]5(C)O)[C@]4(C)CC[C@@]3(C)[C@@H]2C1 = > 110 µM
• COC(=O)CC[C@H]1[C@]2(C)CC[C@@]3(C)[C@@H]4CC(C)(C)CC[C@]4(C)CC[C@]3(C)[C@H]2CC[C@]1(C)C(C)=O = > 110 µM
